biological target: human receptors NK1 (Homo sapiens, UniProt P25103); construct: human lymphoblasts IM-9 specifically expressing the NK1 receptor; endogenous in cells; test: Affinity for the human NK1 receptor on IM-9 lymphoblasts; settings: human lymphoblasts IM-9 expressing NK1
Sequence (P25103 whole entry): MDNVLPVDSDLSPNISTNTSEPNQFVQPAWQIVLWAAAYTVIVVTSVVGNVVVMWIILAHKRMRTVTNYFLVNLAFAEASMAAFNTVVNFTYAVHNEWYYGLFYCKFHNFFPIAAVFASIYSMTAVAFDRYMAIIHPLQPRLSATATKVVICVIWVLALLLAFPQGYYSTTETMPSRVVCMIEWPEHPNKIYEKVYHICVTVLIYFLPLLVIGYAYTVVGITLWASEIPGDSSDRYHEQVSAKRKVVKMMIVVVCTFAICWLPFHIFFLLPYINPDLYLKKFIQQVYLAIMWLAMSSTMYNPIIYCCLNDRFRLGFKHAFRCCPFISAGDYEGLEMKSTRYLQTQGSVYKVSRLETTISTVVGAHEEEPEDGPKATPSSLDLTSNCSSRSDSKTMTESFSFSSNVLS
Reported values of log10 Ki for individual entries
Use the decimal logarithm of Ki (nM).

{"columns": ["molecule", "log10 Ki"],
 "data": [
  ["CN(Cc1ccccc1)C(=O)C(CC1CCc2ccccc2C1)NC(=O)C1CC(O)CN1C(=O)c1cn(CCCCc2nn[n-]n2)c2ccccc12.[K+] (mixture of isomers)", 1.15]
]}

IN: Given CN(Cc1ccccc1)C(=O)C(Cc1ccc2ccccc2c1)NC(=O)C1CC(O)CN1C(=O)c1cn(CCCCCc2nn[n-]n2)c2ccccc12.[K+] (stereo not shown) [Example 7, potassium salt] , respond with its log10 Ki.
OUT: 0.77

----------
Biological target: human receptors NK2 (Homo sapiens, UniProt P21452)
Sequence (P21452 1-398): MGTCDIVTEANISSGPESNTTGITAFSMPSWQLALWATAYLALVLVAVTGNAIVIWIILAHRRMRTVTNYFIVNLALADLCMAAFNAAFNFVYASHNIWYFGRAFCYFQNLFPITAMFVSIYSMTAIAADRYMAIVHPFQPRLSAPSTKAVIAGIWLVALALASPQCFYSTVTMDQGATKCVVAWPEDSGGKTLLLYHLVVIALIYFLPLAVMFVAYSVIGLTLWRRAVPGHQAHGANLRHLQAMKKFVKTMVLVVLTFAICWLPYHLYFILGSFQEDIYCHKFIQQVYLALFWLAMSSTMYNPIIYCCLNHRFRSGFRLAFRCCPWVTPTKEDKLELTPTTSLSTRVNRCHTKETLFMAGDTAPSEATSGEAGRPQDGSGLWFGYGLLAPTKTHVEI
metric: Ki (µM)
// units = µM; emit number, no label

// worked examples, Ki included
{"columns": ["molecule", "observed result"],
 "data": [
  ["CN(Cc1ccccc1)C(=O)C(Cc1ccc2ccccc2c1)NC(=O)C1CC(O)CN1C(=O)c1cn(CCCCc2nn[n-]n2)c2ccccc12.[K+] (stereo not drawn)", 2.4],
  ["CN(Cc1ccccc1)C(=O)C(Cc1ccc2c(c1)CCCC2)NC(=O)C1CC(O)CN1C(=O)c1cn(CCCCc2nn[n-]n2)c2ccccc12.[K+] (stereo not drawn)", 3.6]
]}

Let's switch to this molecule now.
IN: Given CN(Cc1ccccc1)C(=O)C(Cc1ccc2ccccc2c1)NC(=O)C1CC(O)CN1C(=O)c1cn(CCCCCc2nn[n-]n2)c2ccccc12.[K+] (stereo not drawn) [Example 7, potassium salt] , respond with its Ki.
OUT: 10

----------
Target: human receptors NK2 (Homo sapiens, UniProt P21452)
Sequence (P21452 1-398): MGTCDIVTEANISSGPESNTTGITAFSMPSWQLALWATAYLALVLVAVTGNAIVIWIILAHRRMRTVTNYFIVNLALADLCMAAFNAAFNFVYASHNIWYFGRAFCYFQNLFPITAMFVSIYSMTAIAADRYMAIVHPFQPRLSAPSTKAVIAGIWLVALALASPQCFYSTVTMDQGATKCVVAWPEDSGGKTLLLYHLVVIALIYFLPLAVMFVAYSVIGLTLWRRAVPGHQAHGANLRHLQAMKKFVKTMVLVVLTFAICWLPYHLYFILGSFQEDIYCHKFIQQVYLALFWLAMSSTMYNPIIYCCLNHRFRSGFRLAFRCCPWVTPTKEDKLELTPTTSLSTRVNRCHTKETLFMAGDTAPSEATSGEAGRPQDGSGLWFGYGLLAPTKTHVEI
pKi: −log10 of the molar value.
Reported values of pKi for individual entries

// worked examples, pKi included
{"columns": ["compound", "assay system", "pKi"],
 "data": [
  ["CN(Cc1ccccc1)C(=O)C(Cc1ccc2ccccc2c1)NC(=O)C1CC(O)CN1C(=O)c1cn(CCCc2nn[n-]n2)c2ccccc12.[K+] (stereo not drawn) [Example 6, potassium salt]", "human receptors NK2 (Homo sapiens, UniProt P21452)", "< 6.00"],
  ["CN(Cc1ccccc1)C(=O)C(Cc1ccc2ccccc2c1)NC(=O)C1CC(O)CN1C(=O)c1cn(CCc2nn[nH]n2)c2ccccc12 (stereo not drawn) [Example 5]", "human receptors NK2 (Homo sapiens, UniProt P21452)", "< 5.00"]
]}

Let's switch to this compound now.
IN: Given CN(Cc1ccccc1)C(=O)C(Cc1cccs1)NC(=O)C1CC(O)CN1C(=O)c1cn(CCCCc2nn[nH]n2)c2ccccc12 (stereo not drawn) [Example 8] , respond with its pKi.
OUT: < 6.00
